The following compounds are shown together with reported MIC values.
tested on: Staphylococcus aureus; assay: Antibacterial activity against Staphylococcus aureus PU32 by microbroth dilution method; type: functional
Give me the value, and tack the unit on after it.

[[record]]
given_smiles = "CC[C@H]1OC(=O)[C@H](C)C(=O)[C@H](C)[C@@H](O[C@@H]2O[C@H](C)C[C@H](N(C)C)[C@H]2O)[C@](C)(OC)C[C@@H](C)C(=O)[C@H](C)[C@H]2N(CCCCC#Cc3ccc4c(c3)c(=O)c(C(=O)O)cn4C3CC3)C(=O)O[C@]12C"
result = "2 mg/L"


Now look at this entry.
In: # input compound: CC[C@H]1OC(=O)[C@H](C)[C@@H](O[C@H]2C[C@@](C)(OC)[C@@H](O)[C@H](C)O2)[C@H](C)[C@@H](O[C@@H]2O[C@H](C)C[C@H](N(C)C)[C@H]2O)[C@](C)(OC)C[C@@H](C)C(=O)[C@H](C)[C@@H](O)[C@]1(C)O ; wanted: its MIC
Out: 64 mg/L

* * *

The following compounds are shown together with reported MIC values.
tested on: Staphylococcus aureus; assay: Antibacterial activity against Staphylococcus aureus PU32 by microbroth dilution method; format: functional

[[record]]
given_smiles = "CC[C@H]1OC(=O)[C@H](C)C(=O)[C@H](C)[C@@H](O[C@@H]2O[C@H](C)C[C@H](N(C)C)[C@H]2O)[C@](C)(OC)C[C@@H](C)C(=O)[C@H](C)[C@H]2N(CCCC#Cc3ccc4c(c3)c(=O)c(C(=O)O)cn4C3CC3)C(=O)O[C@]12C"
result = "4 µg/mL"

[[record]]
given_smiles = "CC[C@H]1OC(=O)[C@H](C)C(=O)[C@H](C)[C@@H](O[C@@H]2O[C@H](C)C[C@H](N(C)C)[C@H]2O)[C@](C)(OC)C[C@@H](C)C(=O)[C@H](C)[C@H]2N(CCCCc3ccc4c(c3)c(=O)c(C(=O)O)cn4C3CC3)C(=O)O[C@]12C"
result = "1 µg/mL"

[[record]]
given_smiles = "CC[C@H]1OC(=O)[C@H](C)C(=O)[C@H](C)[C@@H](O[C@@H]2O[C@H](C)C[C@H](N(C)C)[C@H]2O)[C@](C)(OC)C[C@@H](C)C(=O)[C@H](C)[C@H]2N(CCCN3CCN(c4cc5c(cc4F)c(=O)c(C(N)=O)cn5C4CC4)CC3)C(=O)O[C@]12C"
result = "2 µg/mL"


Now look at this entry.
In: # input compound: CC[C@H]1OC(=O)[C@H](C)C(=O)[C@H](C)[C@@H](O[C@@H]2O[C@H](C)C[C@H](N(C)C)[C@H]2O)[C@](C)(OC)C[C@@H](C)C(=O)[C@H](C)[C@H]2N(CCCCCCC#Cc3ccc4c(c3)c(=O)c(C(=O)O)cn4C3CC3)C(=O)O[C@]12C ; wanted: its MIC
Out: 4 µg/mL

* * *

test system: Streptococcus pneumoniae; experiment: Antibacterial activity against Streptococcus pneumoniae PU09 by microbroth dilution method; format: functional
The following compounds are shown together with reported MIC values.
Give the value, in units of µg/mL, as a plain number.

[[record]]
compound = "CC[C@H]1OC(=O)[C@H](C)C(=O)[C@H](C)[C@@H](O[C@@H]2O[C@H](C)C[C@H](N(C)C)[C@H]2O)[C@](C)(OC)C[C@@H](C)C(=O)[C@H](C)[C@H]2N(CCN3CCN(c4cc5c(cc4F)c(=O)c(C(=O)O)cn5C4CC4)CC3)C(=O)O[C@]12C"
result_number = 2

[[record]]
compound = "CC[C@H]1OC(=O)[C@H](C)C(=O)[C@H](C)[C@@H](O[C@@H]2O[C@H](C)C[C@H](N(C)C)[C@H]2O)[C@](C)(OC)C[C@@H](C)C(=O)[C@H](C)[C@H]2N(CCCCC#Cc3ccc4c(c3)c(=O)c(C(=O)O)cn4C3CC3)C(=O)O[C@]12C"
result_number = 1


In: # input compound: CC[C@H]1OC(=O)[C@H](C)C(=O)[C@H](C)[C@@H](O[C@@H]2O[C@H](C)C[C@H](N(C)C)[C@H]2O)[C@](C)(OC)C[C@@H](C)C(=O)[C@H](C)[C@H]2N(CC/C=C\c3ccc4c(c3)c(=O)c(C(=O)O)cn4C3CC3)C(=O)O[C@]12C ; wanted: its MIC
Out: 1

In: # input compound: CC[C@H]1OC(=O)[C@H](C)C(=O)[C@H](C)[C@@H](O[C@@H]2O[C@H](C)C[C@H](N(C)C)[C@H]2O)[C@](C)(OC)C[C@@H](C)C(=O)[C@H](C)[C@H]2N(CCC#Cc3ccc4c(c3)c(=O)c(C(=O)O)cn4C3CC3)C(=O)O[C@]12C ; wanted: its MIC
Out: 1

In: # input compound: CC[C@H]1OC(=O)[C@H](C)C(=O)[C@H](C)[C@@H](O[C@@H]2O[C@H](C)C[C@H](N(C)C)[C@H]2O)[C@](C)(OC)C[C@@H](C)C(=O)[C@H](C)[C@H]2N(CCC#Cc3ccc4c(c3)c(=O)c(C(N)=O)cn4C3CC3)C(=O)O[C@]12C ; wanted: its MIC
Out: 1

In: # input compound: CC[C@H]1OC(=O)[C@H](C)C(=O)[C@H](C)[C@@H](O[C@@H]2O[C@H](C)C[C@H](N(C)C)[C@H]2O)[C@](C)(OC)C[C@@H](C)C(=O)[C@H](C)[C@H]2N(CCC#Cc3ccc4c(=O)c(C(=O)O)cn(C5CC5)c4c3)C(=O)O[C@]12C ; wanted: its MIC
Out: 0.5

In: # input compound: CC[C@H]1OC(=O)[C@H](C)C(=O)[C@H](C)[C@@H](O[C@@H]2O[C@H](C)C[C@H](N(C)C)[C@H]2O)[C@](C)(OC)C[C@@H](C)C(=O)[C@H](C)[C@H]2N(CCCCn3cnc(-c4cccnc4)c3)C(=O)O[C@]12C [TELITHROMYCIN] ; wanted: its MIC
Out: 1

In: # input compound: CC[C@H]1OC(=O)[C@H](C)C(=O)[C@H](C)[C@@H](O[C@@H]2O[C@H](C)C[C@H](N(C)C)[C@H]2O)[C@](C)(OC)C[C@@H](C)C(=O)[C@H](C)[C@H]2N(CCCC#Cc3ccc4c(c3)c(=O)c(C(=O)O)cn4C3CC3)C(=O)O[C@]12C ; wanted: its MIC
Out: 1

* * *

The following compounds are shown together with reported MIC values.
test system: Staphylococcus aureus; experiment: Antibacterial activity against Staphylococcus aureus 15B196 by microbroth dilution method; type: functional
Give the value, in units of µg/mL, as a plain number.

# annotated cases, reported MIC shown
[[record]]
given_smiles = "CC[C@H]1OC(=O)[C@H](C)C(=O)[C@H](C)[C@@H](O[C@@H]2O[C@H](C)C[C@H](N(C)C)[C@H]2O)[C@](C)(OC)C[C@@H](C)C(=O)[C@H](C)[C@H]2N(CC/C=C\\c3ccc4c(c3)c(=O)c(C(=O)O)cn4C3CC3)C(=O)O[C@]12C"
result_number = 256

[[record]]
given_smiles = "CC[C@H]1OC(=O)[C@H](C)C(=O)[C@H](C)[C@@H](O[C@@H]2O[C@H](C)C[C@H](N(C)C)[C@H]2O)[C@](C)(OC)C[C@@H](C)C(=O)[C@H](C)[C@H]2N(CCCCCC#Cc3ccc4c(=O)c(C(=O)O)cn(C5CC5)c4c3)C(=O)O[C@]12C"
result_number = 128

[[record]]
given_smiles = "CC[C@H]1OC(=O)[C@H](C)C(=O)[C@H](C)[C@@H](O[C@@H]2O[C@H](C)C[C@H](N(C)C)[C@H]2O)[C@](C)(OC)C[C@@H](C)C(=O)[C@H](C)[C@H]2N(CCN3CCN(c4c(F)cc5c(=O)c(C(=O)O)cn(C6CC6)c5c4OC)CC3)C(=O)O[C@]12C"
result_number = 32


Now look at this entry.
In: # input compound: CC[C@H]1OC(=O)[C@H](C)C(=O)[C@H](C)[C@@H](O[C@@H]2O[C@H](C)C[C@H](N(C)C)[C@H]2O)[C@](C)(OC)C[C@@H](C)C(=O)[C@H](C)[C@H]2N(CCCCc3ccc4c(c3)c(=O)c(C(=O)O)cn4C3CC3)C(=O)O[C@]12C ; wanted: its MIC
Out: 512

* * *

tested on: Streptococcus pneumoniae; test: Antibacterial activity against Streptococcus pneumoniae PU09 by microbroth dilution method; type: functional
REPORTED_ENDPOINT: MIC (µg/mL)
Give the value, in units of µg/mL, as a plain number.

# annotated cases, reported MIC shown
[[record]]
given_smiles = "CC[C@H]1OC(=O)[C@H](C)C(=O)[C@H](C)[C@@H](O[C@@H]2O[C@H](C)C[C@H](N(C)C)[C@H]2O)[C@](C)(OC)C[C@@H](C)C(=O)[C@H](C)[C@H]2N(CCCCCCC#Cc3ccc4c(c3)c(=O)c(C(=O)O)cn4C3CC3)C(=O)O[C@]12C"
system = "Streptococcus pneumoniae"
unit_symbol = "µg/mL"
result_number = 1

[[record]]
given_smiles = "CC[C@H]1OC(=O)[C@H](C)C(=O)[C@H](C)[C@@H](O[C@@H]2O[C@H](C)C[C@H](N(C)C)[C@H]2O)[C@](C)(OC)C[C@@H](C)C(=O)[C@H](C)[C@H]2N(CCCCC#Cc3ccc4c(=O)c(C(=O)O)cn(C5CC5)c4c3)C(=O)O[C@]12C"
system = "Streptococcus pneumoniae"
unit_symbol = "µg/mL"
result_number = 2


In: Query MIC on Streptococcus pneumoniae for CC[C@H]1OC(=O)[C@H](C)C(=O)[C@H](C)[C@@H](O[C@@H]2O[C@H](C)C[C@H](N(C)C)[C@H]2O)[C@](C)(OC)C[C@@H](C)C(=O)[C@H](C)[C@H]2N(CCCCN3CCN(c4cc5c(cc4F)c(=O)c(C(=O)O)cn5C4CC4)CC3)C(=O)O[C@]12C
Out: 0.5
